molecular target: human GABAA α1β3γ2 receptor (Homo sapiens (Human), UniProt P14867+P18507); experiment: Radioligand binding assay for γ2-containing GABAA subtypes, [3H]Flumazenil competition (α1β3γ2); conditions: Log[Ki α1β3γ2 (nM)/Ki α2β2γ1 (nM)]
Entries and their measured LogSel follow.
Number only, please.

These solved cases illustrate the format of a correct answer.
[
  {
    "molecule": "Fc1cccc(F)c1C1=NCc2nc(C(F)F)cn2-c2ccc(Br)c(Cl)c21 [Example 3]",
    "reported.value": 1.18
  },
  {
    "molecule": "C[C@@H]1N=C(c2ncccc2F)c2c(ccc(C(F)(F)F)c2Cl)-n2nc(C(=O)N3CC4(CCCO4)C3)nc21 [Example 113]",
    "reported.value": 2.78
  },
  {
    "molecule": "CO[C@H]1CCN(C(=O)c2nc3n(n2)-c2ccc(Cl)c(Cl)c2C(c2c(F)cccc2F)=N[C@H]3C)C1 [Example 45]",
    "reported.value": 2.40
  },
  {
    "molecule": "C[C@@H]1N=C(c2ncccc2F)c2c(ccc(Br)c2Cl)-n2nc(C(=O)N3CCC3)nc21 [Example 48]",
    "reported.value": 1.85
  },
  {
    "molecule": "C[C@@H]1N=C(c2c(F)cccc2F)c2c(ccc(C(F)(F)F)c2Cl)-n2nc(NC(=O)NC3CC3)nc21 [Example 126]",
    "reported.value": 2.65
  }
]

// query # input molecule: O=C(c1nc2n(n1)-c1ccc(Cl)c(Cl)c1C(c1c(F)cccc1F)=NC2)N1CC(O)C1 [Example 24] ; wanted: its LogSel
// result 1.94

// query # input molecule: Cc1nc2n(n1)-c1ccc(Cl)c(Cl)c1C(c1c(F)cccc1F)=NC2 [Example 32] ; wanted: its LogSel
// result 1.83

// query # input molecule: [2H]C([2H])([2H])NC(=O)c1nc2n(n1)-c1ccc(Cl)c(Cl)c1C(c1c(F)cccc1F)=NC2 [Example 7] ; wanted: its LogSel
// result 1.88
